Target: T1, human Trop-2 on the surface of cells (CHO/Trop-2 cells; BxPC-3 cells; NCI-N87 cells) (human, UniProt P09758 27-323)
T1 sequence (looked up): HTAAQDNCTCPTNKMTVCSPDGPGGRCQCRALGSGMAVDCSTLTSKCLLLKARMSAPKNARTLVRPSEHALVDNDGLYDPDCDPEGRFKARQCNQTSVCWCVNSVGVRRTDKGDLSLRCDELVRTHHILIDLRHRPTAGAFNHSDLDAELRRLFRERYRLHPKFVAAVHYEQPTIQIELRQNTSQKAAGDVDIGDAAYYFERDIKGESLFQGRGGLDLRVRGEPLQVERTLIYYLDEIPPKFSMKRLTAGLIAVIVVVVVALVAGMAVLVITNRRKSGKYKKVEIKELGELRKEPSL
Test: cell-based or functional assay
Parameter: Internalization percentage, 1 h, BXPC-3 cells, FACS. Scope: all listed entries.
Quantity: Internalization percentage, 1 h, BXPC-3 cells, FACS

Binder: Sacituzumab-SN38 (antibody, human IgG1, kappa, V domains shown, CL2A-SN-38 conjugated to the DTT-reduced antibody; 7.5 SN38 per antibody; sites not stated, also called Sacituzumab labeled with SN38) VH: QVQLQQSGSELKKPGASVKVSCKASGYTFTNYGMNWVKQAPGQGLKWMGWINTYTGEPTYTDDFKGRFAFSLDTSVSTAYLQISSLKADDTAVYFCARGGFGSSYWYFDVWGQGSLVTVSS VL: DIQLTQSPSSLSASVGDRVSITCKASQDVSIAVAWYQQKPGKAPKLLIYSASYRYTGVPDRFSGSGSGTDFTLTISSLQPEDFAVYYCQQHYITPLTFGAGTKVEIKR
Result: 32.7%
--
Binder: chimeric antibody ch4-3 (antibody, human IgG1, V domains shown) VH: QVQLQQSGPELVKPGASVKMSCKASGFTFTDYVIGWVKQRTGQGLEWIGEIYLGSGTIYYTEKFKGKATLTADTSSNTAYMQLSSLTSEDSAVYFCARGSIFPFDYWGQGTTLTVSS VL: QIVLTQSPAIMSASPGEKVTMTCSASSSVSYMYWYQQKPGSSPRLLIYDTSTLASGVPVRFSGSGSGTSYSLTISRMEAEDAATYYCQQWSSYPYTFGGGTKLEIK
Result: 30.7%
--
Binder: chimeric antibody ch11-4 (antibody, human IgG1, V domains shown) VH: QVQLQQPGAELVRPGASVNLSCKASGYTFTSYWINWVKQRPGQGLEWIGNIYPSNSYTNYNQKFKDTATLTVDKSSSTAYMQLSSPTSEDSAVYFCSSYRSDGFAYWGQGTLVTVSA VL: DILLTQSPAILSVSPGEKVSFSCRASQNIGTSIHWYQQRTNGSPRLLIEFASESISGIPSRFSGSGSGTDFTLTINSVESEDIADYYCQQSNSWPFTFGGGTKLEIK
Result: 15.5%
